- Target desc: T1, human BMP-11 (GDF-11; R&D Systems) (human, UniProt O95390 299-407)
- T1 sequence (looked up): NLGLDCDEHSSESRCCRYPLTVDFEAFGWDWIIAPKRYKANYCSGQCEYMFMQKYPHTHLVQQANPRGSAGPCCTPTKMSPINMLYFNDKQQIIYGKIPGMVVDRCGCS
- Protocol details: cell-based or functional assay
Readout kind: ARE-luciferase IC50 (nM)
Kindly answer with a numeric value in nM, unit omitted.

Exam item: // returns reported ARE-luciferase IC50 for input ATI-1267 [N-ethylmaleimide] (designed binder, N-ethylmaleimide on the Cys of the EGSGC tail, cysteine mutant of 2525_D02) MGVSDVPRDLEVVAATPTSLLISWTLPHAGRAHYYRITYGETGGNSPVQEFTVPGRGVTATISGLKPGVDYTITVYAVTVTTTSVILYKPISINYRTEGSGCHHHHHH
Marked response: 0.5

--- query ---
Exam item: What value of ARE-luciferase IC50 has been reported for the following binder? 2987_F06 (designed binder) MGVSDVPRDLEVVAATPTSLLISWSLPHAGHAHYYRITYGETGGNSPVQEFTVPGRGVTATISGLKPGVDYTITVYAVTLTKSKVIHYMPISINYRTEIDKPSQHHHHHH
Marked response: 20

These measurements were taken from patent US20170088602A1.
